tested.on: HIV protease (Human immunodeficiency virus type 1 group M subtype B)
method.notes: biochemical
Reported Ki values for a set of molecules

Example entries begin here.
> print(dat)
                                 smiles.str  measured.attribute  assay.result
1  CC(C)CN([C@H](CO)CCCNC(=O)[C@@H](NC(=O)N1CCOCC1)C(c1ccccc1)c1ccccc1)S(=O)(=O)c1ccc(N)cc1                  Ki        4.2 nM
2  CC(C)CN([C@H](CO)CCCCNC(=O)[C@@H](NC(=O)c1cnccn1)C(c1ccccc1)c1ccccc1)S(=O)(=O)c1ccc(N)cc1                  Ki      < 3.8 nM

Looking up COc1ccc(S(=O)(=O)N(CC(C)C)[C@H](CO)CCCCNC(=O)[C@H](Cc2cccc3ccccc23)NC(=O)N2CCOCC2)cc1 , I found its Ki recorded as 1.5 nM

Where do these numbers come from? They come from patent US6632816B1.
